- PROTOCOL: growth inhibition of non-replicating M. tuberculosis (AID 488890);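 also: plate controls were DMSO cells for no effect and high antibiotic wells for full effect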
- TEST_CONTEXT: Mycobacterium tuberculosis non-replicating, at 25 µM, stronger effect = higher value
The whole screen tested about 320,000 compounds, of which about 1,300 (0.41%) were called active. Inconclusive results (about 3%) are left out. Not all results are given here. Results with a measured potency or affinity are listed apart.
Lab note: anything with inhibition at or over 10% counts as criterion met; the rest go in criterion not met.

Example results:
| COMPOUND | LABEL_CLASS |
| --- | --- |
| O=C(NCC1CCCO1)c1cc2c(s1)CCCC2 (configuration not stated) | criterion not met |
| CCC1CCc2sc(C(=O)NCc3ccccn3)cc2C1 (configuration not stated) | criterion met |
| CCOc1ccc(OCCN2CCCCC2)cc1 | criterion not met |
| O=[N+]([O-])c1cccc(-c2nc(-c3ccncc3)no2)c1 | criterion not met |
| COc1ccc(C2NC(=S)NC(C)=C2C(=O)Nc2ccccn2)cc1OC (configuration not stated) | criterion not met |

Qu. Has O=C(CC1SC(N2CCOCC2)=NC1=O)Nc1cccc(C(F)(F)F)c1 (configuration not stated) a recorded inhibition greater than or equal to 10%?
Ans. criterion not met

Qu. Has "CCN(CC)CCNC(=O)c1cc2c(-c3ccc(Cl)cc3)nn(C)c2s1" a recorded inhibition greater than or equal to 10%?
Ans. criterion met

Qu. Has CC1CCc2sc(C(=O)NNC(=O)c3ccncc3)cc2C1 (configuration not stated) a recorded inhibition greater than or equal to 10%?
Ans. criterion met

Qu. Has "CN(/N=C/C=C/c1ccccc1)C1=NS(=O)(=O)c2ccccc21" a recorded inhibition greater than or equal to 10%?
Ans. criterion not met

Qu. Has CCOC(=O)C1=C(c2ccccc2)NC(=O)NC1c1ccc(OCC#N)c(OC)c1 (configuration not stated) a recorded inhibition greater than or equal to 10%?
Ans. criterion not met

Qu. Has "COC(=O)CSc1nnc(-c2ccccc2OC)o1" a recorded inhibition greater than or equal to 10%?
Ans. criterion met

Qu. Has "COC(=O)c1ccc(CNC(=O)c2ccc(COc3ccccc3)cc2)cc1" a recorded inhibition greater than or equal to 10%?
Ans. criterion met

* * *

- PROTOCOL: growth inhibition of non-replicating M. tuberculosis (AID 488890);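 also: plate controls were DMSO cells for no effect and high antibiotic wells for full effect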
- TEST_CONTEXT: Mycobacterium tuberculosis non-replicating, at 25 µM, stronger effect = higher value
Among all 320,000 compounds or so, about 1,300 (0.41%) were called active. About 3% were inconclusive and are not listed. These entries were drawn from the full list. Entries with a potency or affinity are not part of this list.
RESULT_TYPE: inhibition (%)
Field format: number, assumed %, no unit text.

| COMPOUND | MEAS_VALUE |
| --- | --- |
| CCc1nc(NC(C)C)c2oc3ccccc3c2n1 | 8.44 |
| CC(C)C[C@H](NC(=O)c1nc[nH]c1C(=O)NCCCCCN)C(=O)OCc1ccccc1 | 18.5 |
| COc1cccc(C=NCCNC(=O)c2nonc2N)c1O | -21.9 |
| Clc1ccc(Cc2nnc(-c3ccccc3Br)o2)cc1 | 69.1 |
| Cc1nnc(SCc2nnc(-c3cccs3)o2)n1C | -12.8 |
| CCOC(=O)c1c(NC(=O)CSc2nc3cc(Cl)ccc3s2)sc(C(C)=O)c1C | 2.44 |
| CN1CCN(C2Cc3ccccc3Sc3ccc(Cl)cc32)CC1 (stereo not drawn) | 76.8 |
| c1csc(-c2nnc(COc3ncnc4sccc34)o2)c1 | 10.4 |

Qu. What value of measured inhibition is listed for "Cc1nnc(SCc2nnc(-c3cccs3)o2)s1" ?
Ans. 72.4

Qu. What value of measured inhibition is listed for "Cc1cc(C(=O)N/N=C2\CCCc3ccccc32)c(C)o1" ?
Ans. 8.07

Qu. What value of measured inhibition is listed for "COc1cccc(C(=O)CSc2nnc(-c3cccs3)o2)c1" ?
Ans. 65

Qu. What value of measured inhibition is listed for "Nc1nonc1C(=O)NCCN=Cc1ccccc1O" ?
Ans. -0.48

Qu. What value of measured inhibition is listed for "CC(C)(C)OC(=O)C[C@@H]1C/C=C\C[C@@H](CC(=O)N(CCO)Cc2ccccc2)C(=O)N[C@H](Cc2c[nH]c3ccccc23)COC1=O" ?
Ans. 67

Qu. What value of measured inhibition is listed for "CCOC(=O)c1nn(-c2ccc(Cl)cc2C)ccc1=O" ?
Ans. -14.1

Qu. What value of measured inhibition is listed for "Cc1ccc(COC(=O)c2cc(S(=O)(=O)N3CCOCC3)ccc2C)cc1" ?
Ans. 40.1

Qu. What value of measured inhibition is listed for c1ccc2c(c1)CC(N1CCCCC1)c1ccccc1S2 (stereo not drawn) ?
Ans. 72.9

Qu. What value of measured inhibition is listed for "CCSc1nnc(-c2cccs2)o1" ?
Ans. 58.5

Qu. What value of measured inhibition is listed for "CN(Cc1cccs1)C(=O)COC(=O)CNC(N)=O" ?
Ans. 2.55

Qu. What value of measured inhibition is listed for "COc1ccc(CN(C)C(=O)c2ccc(NS(=O)(=O)c3ccc4[nH]c(=O)[nH]c4c3)cc2)c(OC)c1OC" ?
Ans. 35.7
